The values you see were collected from the supplement of paper PMC6755084.

B1: F1*; the commonest letter at each place (parent)
chain: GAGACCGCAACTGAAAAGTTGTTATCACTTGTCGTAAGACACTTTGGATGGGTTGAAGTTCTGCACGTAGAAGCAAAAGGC

Variants of: B1
PROCEDURE TEXT: fraction ligated after 30 min (ligated reads / total reads); higher = more ligase activity
APPLIED CONDITIONS: with F1*sub RNA substrate (template-directed ligation), 42 °C
Form field: fraction ligated (one value per entry).

Previously resolved entries follow.
>  <CHANGE>
T45C G50C

>  <EXPERIMENTAL RESULT>
0.0165

$$$$
>  <CHANGE>
T23G C26T

>  <EXPERIMENTAL RESULT>
0.82

$$$$
>  <CHANGE>
C26A A27T

>  <EXPERIMENTAL RESULT>
0.747

$$$$
>  <CHANGE>
T23G A57G

>  <EXPERIMENTAL RESULT>
0.819

$$$$
>  <CHANGE>
T30A T32G

>  <EXPERIMENTAL RESULT>
0.842

$$$$
>  <CHANGE>
T25G G55A

>  <EXPERIMENTAL RESULT>
0.442

$$$$
>  <CHANGE>
T29C G50C

>  <EXPERIMENTAL RESULT>
0.112

$$$$
>  <CHANGE>
A39G G47A

>  <EXPERIMENTAL RESULT>
0.795

$$$$

Challenge: Dear colleague, I am looking for the recorded fraction ligated of the following variant: T35A T45A
Response given: 0.797

Challenge: Dear colleague, I am looking for the recorded fraction ligated of the following variant: C28T A36T
Response given: 0.799
